- Target system: Recombinant human TPH1 (MBP tagged) (Homo sapiens, UniProt P17752)
- Construct: cloning full length human TPH1 cDNA in to a bacterial pMAL-c5E expression vector; made in house; host or cells: E. coli BL21 (DE3)
- Method notes: TPH1 in vitro inhibition assay (kinetic fluorescence)
- Assay type: biochemical
- Experimental setup: read-out: TPH1 Range (TPH1 inhibition IC50)
pIC50: −log10 of the molar value.
Assignment: determine reported pIC50 for the given molecules.

Query string: Complete the entry with pIC50 for Nc1nc(O[C@H](c2ccc(-c3ccccc3C(F)(F)F)cc2)C(F)(F)F)cc(N2CCC3(CC2)CN[C@H](C(=O)O)C3)n1 [Example 55ce]
Result string: 5.52 to 6.52

Query string: Answer with reported pIC50 of Cc1cc(-c2cc(Cl)ccc2[C@@H](Oc2cc(N3CCC4(CC3)CN[C@H](C(=O)O)C4)nc(N)n2)C(F)(F)F)cc(C(C)(C)C)c1 [Example 34bm]
Result string: 6.52 to 7.30

Query string: Indicate the recorded pIC50 value for this molecule: Cc1ccn(-c2ccc(-c3ccccc3)cc2[C@@H](Oc2cc(N3CCC4(CC3)CN[C@H](C(=O)O)C4)nc(N)n2)C(F)(F)F)n1 [Example 19n]
Result string: > 7.30

Query string: Report pIC50 for CCN(CC)C(=O)c1ccc(-c2ccc([C@@H](Oc3cc(N4CCC5(CC4)CN[C@H](C(=O)O)C5)nc(N)n3)C(F)(F)F)c(-n3ccc(C)n3)c2)cc1 [Example 1cm]
Result string: > 7.30

Query string: Determine its reported pIC50: COc1ccc(-c2ccc([C@@H](Oc3cc(N4CCC5(CC4)CN[C@H](C(=O)O)C5)nc(N)n3)C(F)(F)F)c(-n3ccc(C)n3)c2)cn1 [Example 1s]
Result string: > 7.30

Query string: Hello, please tell me recorded pIC50 for this one: CCc1cccc(-c2cc(Cl)ccc2[C@@H](Oc2cc(N3CCC4(CC3)CN[C@H](C(=O)O)C4)nc(N)n2)C(F)(F)F)c1 [Example 34cd]
Result string: 6.52 to 7.30

====

- Target system: Recombinant human TPH1 (MBP tagged) (Homo sapiens, UniProt P17752)
- Construct: cloning full length human TPH1 cDNA in to a bacterial pMAL-c5E expression vector; made in house; host or cells: E. coli BL21 (DE3)
- Sequence (P17752 1-444): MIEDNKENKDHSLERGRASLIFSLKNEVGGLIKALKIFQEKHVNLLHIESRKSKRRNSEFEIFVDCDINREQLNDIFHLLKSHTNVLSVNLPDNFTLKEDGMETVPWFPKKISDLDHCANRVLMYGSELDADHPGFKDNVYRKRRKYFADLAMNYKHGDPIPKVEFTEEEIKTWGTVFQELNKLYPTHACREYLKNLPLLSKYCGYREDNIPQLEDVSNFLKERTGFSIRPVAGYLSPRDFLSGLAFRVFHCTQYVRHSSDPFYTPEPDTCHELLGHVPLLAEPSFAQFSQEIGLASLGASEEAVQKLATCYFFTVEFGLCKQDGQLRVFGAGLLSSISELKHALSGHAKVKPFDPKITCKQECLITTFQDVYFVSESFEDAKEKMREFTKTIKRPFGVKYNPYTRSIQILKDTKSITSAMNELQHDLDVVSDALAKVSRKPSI
- Method notes: TPH1 in vitro inhibition assay (kinetic fluorescence)
- Type: biochemical
- Experimental setup: read-out: TPH1 Range (TPH1 inhibition IC50)
For each entry below, report its IC50 value.

Query string: Note IC50 for the compound shown: CCOc1cccc(-c2ccc([C@@H](Oc3cc(N4CCC5(CC4)CN[C@H](C(=O)O)C5)nc(N)n3)C(F)(F)F)c(-n3ccc(C)n3)c2)c1 [Example 1ap]
Result string: < 50 nM

Query string: Given Cc1ccn(-c2cc(C(=O)OC(C)(C(F)(F)F)C(F)(F)F)ccc2[C@@H](Oc2cc(N3CCC4(CC3)CN[C@H](C(=O)O)C4)nc(N)n2)C(F)(F)F)n1 [Example 18a] , respond with its IC50.
Result string: 50 to 300 nM

Query string: Look up and report measured IC50 for this entry: CC/C=C/c1ccc(-n2ccc(C)n2)c([C@@H](Oc2cc(N3CCC4(CC3)CN[C@H](C(=O)O)C4)nc(N)n2)C(F)(F)F)c1 [Example 19c]
Result string: < 50 nM

Query string: Given the compound Nc1nc(O[C@H](c2ccccc2-c2ccccc2)C(F)(F)F)cc(N2CCC3(CC2)CN[C@H](C(=O)O)C3)n1 [Example 36g] , write its reported IC50.
Result string: < 50 nM

Query string: Tell me measured IC50 for CCCCc1ccc(-n2ccc(C)n2)c([C@@H](Oc2cc(N3CCC4(CC3)CN[C@H](C(=O)O)C4)nc(N)n2)C(F)(F)F)c1 [Example 22c] please.
Result string: < 50 nM

Query string: Let me know recorded IC50 for Nc1nc(O[C@H](c2ccc(Cl)cc2-c2cc(F)cc(C(F)(F)F)c2)C(F)(F)F)cc(N2CCC3(CC2)CN[C@H](C(=O)O)C3)n1 [Example 34aq] , thanks.
Result string: < 50 nM

Query string: Query IC50 for Cc1ccn(-c2ccc(/C=C/C(=O)O)cc2[C@@H](Oc2cc(N3CCC4(CC3)CN[C@H](C(=O)O)C4)nc(N)n2)C(F)(F)F)n1 [Example 19d]
Result string: 50 to 300 nM

Query string: Using known records, supply IC50 for Nc1nc(O[C@H](c2ccc(Cl)cc2-c2ccccc2N)C(F)(F)F)cc(N2CCC3(CC2)CNC(C(=O)O)C3)n1 (stereo partly drawn) [Example 34d]
Result string: 50 to 300 nM

Query string: Please report the measured IC50 for Nc1nc(O[C@H](c2ccc(-c3ccc4ncsc4c3)cc2)C(F)(F)F)cc(N2CCC3(CC2)CN[C@H](C(=O)O)C3)n1 [Example 55k]
Result string: 50 to 300 nM

Query string: Given Nc1nc(O[C@H](c2ccc(-c3ccc4cn[nH]c4c3)cc2)C(F)(F)F)cc(N2CCC3(CC2)CN[C@H](C(=O)O)C3)n1 [Example 55h] , respond with its IC50.
Result string: 50 to 300 nM

Query string: Give IC50 for Cc1ccc(-c2ccc([C@@H](Oc3cc(N4CCC5(CC4)CN[C@H](C(=O)O)C5)nc(N)n3)C(F)(F)F)c(-n3ccc(C)n3)c2)cc1 [Example 1ae]
Result string: < 50 nM

Query string: Provide IC50 value for the following compound: Nc1nc(O[C@H](c2ccc(Cl)cc2-c2ccc(F)c(C(F)(F)F)c2)C(F)(F)F)cc(N2CCC3(CC2)CN[C@H](C(=O)O)C3)n1 [Example 34bk]
Result string: 50 to 300 nM

====

- Target system: Recombinant human TPH1 (MBP tagged) (Homo sapiens)
- Construct: cloning full length human TPH1 cDNA in to a bacterial pMAL-c5E expression vector; made in house; host or cells: E. coli BL21 (DE3)
- Method notes: TPH1 in vitro inhibition assay (kinetic fluorescence)
- Assay type: biochemical
- Experimental setup: read-out: TPH1 Range (TPH1 inhibition IC50)
Readout name: IC50

Query string: Look up and report measured IC50 for this entry: CC(Nc1cc(N2CCC3(CC2)CN[C@H](C(=O)O)C3)nc(N)n1)C12CC3CC(CC(C3)C1)C2 (stereo partly drawn) [Example 41d]
Result string: 3000 to 10000 nM

Query string: Indicate the recorded IC50 value for this molecule: COC(=O)c1ccc(-c2ccc([C@@H](Oc3cc(N4CCC5(CC4)CN[C@H](C(=O)O)C5)nc(N)n3)C(F)(F)F)cc2)cc1OC(C)=O [Example 55ad]
Result string: 50 to 300 nM

Query string: Note IC50 for the molecule shown: Cc1ccn(-c2cc(-c3ccc(S(N)(=O)=O)cc3)ccc2[C@@H](Oc2cc(N3CCC4(CC3)CN[C@H](C(=O)O)C4)nc(N)n2)C(F)(F)F)n1
Result string: 50 to 300 nM

Query string: Consider the molecule Cc1ccn(-c2cc(-c3ccc(Cl)c(C)c3)ccc2[C@@H](Oc2cc(N3CCC4(CC3)CN[C@H](C(=O)O)C4)nc(N)n2)C(F)(F)F)n1 . State its measured IC50.
Result string: < 50 nM

Query string: Tell us which IC50 value is on record for Nc1nc(O[C@H](c2ccc(-c3ccccc3)cc2)C(F)(F)F)cc(N2CCC3(CC2)CN[C@H](C(=O)O)C3)n1 [Example 55a]
Result string: 50 to 300 nM

Query string: For the molecule Nc1nc(O[C@H](c2ccc(Cl)cc2-c2ccc(Cl)c(F)c2)C(F)(F)F)cc(N2CCC3(CC2)CN[C@H](C(=O)O)C3)n1 [Example 34af] , give its measured IC50 value.
Result string: < 50 nM

====

- Target system: Recombinant human TPH1 (MBP tagged) (Homo sapiens, UniProt P17752)
- Construct: cloning full length human TPH1 cDNA in to a bacterial pMAL-c5E expression vector; made in house; host or cells: E. coli BL21 (DE3)
- Method notes: TPH1 in vitro inhibition assay (kinetic fluorescence)
- Type: biochemical
- Experimental setup: read-out: TPH1 Range (TPH1 inhibition IC50)
pIC50: −log10 of the molar value.
For each record, write down the corresponding pIC50.

Query string: Give pIC50 for Cn1cc(-c2ccc([C@@H](Oc3cc(N4CCC5(CC4)CN[C@H](C(=O)O)C5)nc(N)n3)C(F)(F)F)cc2)ccc1=O [Example 55af]
Result string: 5.52 to 6.52

Query string: Please report pIC50 for the following molecule: C=Cc1ccc(-n2ccc(C)n2)c([C@@H](Oc2cc(N3CCC4(CC3)CN[C@H](C(=O)O)C4)nc(N)n2)C(F)(F)F)c1 [Example 19a]
Result string: > 7.30

Query string: Recall and state the measured pIC50 for COc1ncccc1-c1ccc([C@@H](Oc2cc(N3CCC4(CC3)CN[C@H](C(=O)O)C4)nc(C)n2)C(F)(F)F)c(-n2ccc(C)n2)c1 [Example 29k] .
Result string: 6.52 to 7.30

Query string: Look up and report measured pIC50 for this entry: Cc1ccn(-c2cc(C(=O)OC(C)(C)C)ccc2[C@@H](Oc2cc(N3CCC4(CC3)CN[C@H](C(=O)O)C4)nc(N)n2)C(F)(F)F)n1 [Example 18d]
Result string: > 7.30

Query string: Return pIC50 for the following molecule: Nc1nc(O[C@H](c2ccc(-c3ccc(F)c(F)c3)cc2)C(F)(F)F)cc(N2CCC3(CC2)CN[C@H](C(=O)O)C3)n1 [Example 55cr]
Result string: 5.52 to 6.52

Query string: Read off the recorded pIC50 for CN1CCN(C(=O)c2cccc(-c3cc(Cl)ccc3[C@@H](Oc3cc(N4CCC5(CC4)CN[C@H](C(=O)O)C5)nc(N)n3)C(F)(F)F)c2)CC1 [Example 34ch]
Result string: > 7.30

Query string: Give recorded pIC50. Cn1cnc2cc(-c3ccc([C@@H](Oc4cc(N5CCC6(CC5)CN[C@H](C(=O)O)C6)nc(N)n4)C(F)(F)F)cc3)ccc21 [Example 55c]
Result string: 6.52 to 7.30

Query string: Identify measured pIC50 corresponding to Nc1nc(O[C@H](c2ccc(Cl)cc2-c2ccc(Cl)c(C(F)(F)F)c2)C(F)(F)F)cc(N2CCC3(CC2)CN[C@H](C(=O)O)C3)n1 [Example 34am]
Result string: 6.52 to 7.30

Query string: Let me know recorded pIC50 for Nc1nc(O[C@H](c2ccc(Cl)cc2-c2cc(C(F)(F)F)cc(C(F)(F)F)c2)C(F)(F)F)cc(N2CCC3(CC2)CN[C@H](C(=O)O)C3)n1 [Example 34bh] , thanks.
Result string: 5.52 to 6.52

Query string: Supply measured pIC50 of Nc1nc(O[C@H](c2ccc(-c3ccc4nccnc4c3)cc2)C(F)(F)F)cc(N2CCC3(CC2)CN[C@H](C(=O)O)C3)n1 [Example 55bi] in your reply.
Result string: > 7.30

Query string: State its pIC50: Cc1ccn(-c2cc(-c3ccc(OC(F)(F)F)cc3)ccc2[C@@H](Oc2cc(N3CCC4(CC3)CN[C@H](C(=O)O)C4)nc(C)n2)C(F)(F)F)n1 [Example 29t]
Result string: 6.52 to 7.30

Query string: Answer with the recorded pIC50 for the molecule listed here: Cc1ccn(-c2cc(-c3cccc(C(C)C)c3)ccc2[C@@H](Oc2cc(N3CCC4(CC3)CN[C@H](C(=O)O)C4)nc(N)n2)C(F)(F)F)n1
Result string: > 7.30
